# target.system: T1, peptide-6 (HSP65-derived peptide, GPKGRNVVLEKKWGAP) (Mycobacterium tuberculosis)
# T1 construct: also called peptide-6 antigen; 15
# T1 peptide: GPKGRNVVLEKKWGAP
# assay.procedure: ELISA, peptide-6 coated plate
assay.endpoint: binding result

| binder | measured.result |
| --- | --- |
| humanized anti-peptide-6 antibody variant VH1/VK3 (antibody, V domains shown) VH: QVTLKESGPAIVKPTQTLTLTCSFSGFSLSTSNMGVGWIRQPSGKGLEWLLHILWNDSKYYNPALKSRLTISKDTYKNQVVLTMTNMDPVDTATYYCARMGGYYGNYGYYAMDYWGQGTSVTVSS VL: QIVLTQSPATLSLSPGERATLSCTASSSVSSSYLHWYQQKPGKAPKLWIYSTSNLASGVPSRFSGSGSGTDYTLTISSLQPEDFATYYCHQYHRSPPTFGQGTKLEIK | binds |
